- ASSAYED_SYSTEM: HLA-DR DRB1*0401 (DR4) (Homo sapiens, UniProt P01903+P01911, A100K/A169T/F76Y/I96L/K127E/L162R/M171V/N62H/P40V/Q125Y/R42H/S133A/S149N/S66Y/V115G/V209L/W38E)
- ASSAY_NAME: biochemical
- Assay type: binding
- STUDY_CONDITIONS: DRB1 *0401

[
  {
    "MOLECULE_SMILES": "CC[C@H](C)[C@H](N)C(=O)N[C@@H](Cc1ccc(O)cc1)C(=O)N[C@@H](CO)C(=O)N[C@H](C(=O)N[C@@H](CO)C(=O)N[C@@H](CCSC)C(=O)N[C@@H](CCCCN)C(=O)N[C@@H](Cc1c[nH]cn1)C(=O)N1CCC[C@H]1C(=O)N[C@@H](CCC(N)=O)C(=O)N[C@@H](CCC(=O)O)C(=O)N[C@@H](CCSC)C(=O)N[C@@H](CCCCN)C(=O)N[C@H](C(=O)N[C@@H](Cc1ccc(O)cc1)C(=O)O)[C@@H](C)O)[C@@H](C)CC",
    "IC50": "16000 nM"
  },
  {
    "MOLECULE_SMILES": "C[C@H](N)C(=O)N[C@@H](C)C(=O)N[C@@H](C)C(=O)N[C@@H](C)C(=O)N[C@@H](C)C(=O)N[C@@H](C)C(=O)N[C@@H](C)C(=O)N[C@@H](C)C(=O)N[C@@H](C)C(=O)N[C@@H](C)C(=O)N[C@@H](C)C(=O)N[C@@H](C)C(=O)N[C@@H](CC(N)=O)C(=O)O",
    "IC50": "500 nM"
  },
  {
    "MOLECULE_SMILES": "CC[C@H](C)[C@H](N)C(=O)N[C@@H](CC(C)C)C(=O)N[C@@H](CC(C)C)C(=O)N[C@@H](Cc1c[nH]c2ccccc12)C(=O)N[C@@H](CCC(N)=O)C(=O)N1CCC[C@H]1C(=O)N[C@H](C(=O)N1CCC[C@H]1C(=O)N[C@H](C(=O)N[C@@H](Cc1c[nH]cn1)C(=O)N[C@H](C(=O)N[C@H](C(=O)N1CCC[C@H]1C(=O)N[C@@H](CC(C)C)C(=O)N[C@@H](CO)C(=O)O)C(C)C)[C@@H](C)O)C(C)C)[C@@H](C)CC",
    "IC50": "170 nM"
  },
  {
    "MOLECULE_SMILES": "CC(C)C[C@H](NC(=O)[C@H](CCC(=O)O)NC(=O)[C@H](CCCCN)NC(=O)[C@H](C)NC(=O)[C@H](CC(C)C)NC(=O)[C@@H](NC(=O)[C@H](CO)NC(=O)[C@H](CCCNC(=N)N)NC(=O)[C@H](CC(=O)O)NC(=O)[C@H](CC(C)C)NC(=O)[C@H](Cc1c[nH]c2ccccc12)NC(=O)[C@H](Cc1ccccc1)NC(=O)[C@H](Cc1ccccc1)NC(=O)[C@H](CC(C)C)NC(=O)[C@@H](N)CC(C)C)C(C)C)C(=O)O",
    "IC50": "2.6 nM"
  },
  {
    "MOLECULE_SMILES": "CC[C@H](C)[C@H](NC(=O)[C@H](CO)NC(=O)[C@H](CC(N)=O)NC(=O)[C@H](C)NC(=O)[C@H](CC(C)C)NC(=O)[C@H](CCC(=O)O)NC(=O)[C@H](Cc1ccccc1)NC(=O)[C@@H](NC(=O)[C@H](CCSC)NC(=O)CN)C(C)C)C(=O)N[C@H](C(=O)N[C@@H](CC(C)C)C(=O)N1CCC[C@H]1C(=O)N[C@@H](Cc1ccccc1)C(=O)N[C@@H](CC(=O)O)C(=O)O)C(C)C",
    "IC50": "230 nM"
  }
]

###

- ASSAYED_SYSTEM: HLA-DR DRB1*0405 (DR4) (Homo sapiens, UniProt P01903+P01911, A100R/A169T/D86S/F76Y/I96L/K127E/L162R/M171V/N62H/P40V/Q125Y/R42H/S133A/S149N/S66Y/V115G/V209L/W38E)
- ASSAY_NAME: biochemical
- Format: binding
- STUDY_CONDITIONS: DRB1 *0405
pIC50: −log10 of the molar value.

[
  {
    "MOLECULE_SMILES": "CC[C@H](C)[C@H](NC(=O)CNC(=O)[C@H](CC(C)C)NC(=O)[C@H](CC(C)C)NC(=O)[C@H](CCCNC(=N)N)NC(=O)[C@H](CO)NC(=O)[C@@H](NC(=O)[C@H](Cc1ccc(O)cc1)NC(=O)[C@@H]1CCCN1C(=O)[C@H](CO)NC(=O)CNC(=O)[C@@H](NC(=O)CN)C(C)C)C(C)C)C(=O)N[C@@H](CS)C(=O)N[C@@H](CC(C)C)C(=O)O",
    "pIC50": 5.38
  },
  {
    "MOLECULE_SMILES": "CC[C@H](C)[C@H](NC(=O)[C@@H](NC(=O)[C@H](CC(C)C)NC(=O)[C@H](CC(=O)O)NC(=O)[C@@H](NC(=O)[C@H](Cc1ccccc1)NC(=O)[C@H](C)NC(=O)[C@H](Cc1ccccc1)NC(=O)[C@H](CC(=O)O)NC(=O)[C@H](CC(C)C)NC(=O)[C@@H](N)C(C)C)[C@@H](C)O)[C@@H](C)O)C(=O)N[C@H](C(=O)N[C@@H](Cc1ccc(O)cc1)C(=O)N[C@@H](CCCNC(=N)N)C(=O)N[C@@H](CC(=O)O)C(=O)O)C(C)C",
    "pIC50": 6.14
  },
  {
    "MOLECULE_SMILES": "CC[C@H](C)[C@H](NC(=O)[C@@H](N)CCCCN)C(=O)N[C@@H](Cc1ccccc1)C(=O)NCC(=O)N[C@@H](CO)C(=O)N[C@@H](CC(C)C)C(=O)N[C@@H](C)C(=O)N[C@@H](Cc1ccccc1)C(=O)N[C@@H](CC(C)C)C(=O)N1CCC[C@H]1C(=O)N[C@@H](CCC(=O)O)C(=O)N[C@@H](CO)C(=O)N[C@@H](Cc1ccccc1)C(=O)N[C@@H](CC(=O)O)C(=O)NCC(=O)N[C@@H](CC(=O)O)C(=O)N1CCC[C@H]1C(=O)N[C@@H](C)C(=O)O",
    "pIC50": 7.43
  },
  {
    "MOLECULE_SMILES": "CC[C@H](C)[C@H](NC(=O)[C@H](Cc1ccc(O)cc1)NC(=O)[C@@H]1CCCN1C(=O)[C@H](CC(=O)O)NC(=O)[C@H](CCC(=O)O)NC(=O)[C@H](CC(C)C)NC(=O)[C@@H](NC(=O)[C@H](C)NC(=O)[C@@H](N)CCC(=O)O)C(C)C)C(=O)N[C@@H](CC(C)C)C(=O)N[C@@H](CC(C)C)C(=O)N[C@H](C(=O)N[C@@H](CO)C(=O)N[C@@H](CO)C(=O)N[C@@H](CCCCN)C(=O)O)C(C)C",
    "pIC50": 6.17
  }
]

###

- ASSAYED_SYSTEM: HLA-DR DRB1*0101 (DR1) (Homo sapiens, UniProt P01903+P01911, A100R/D57E/F55L/F60I/F76Y/I96L/L162R/M171V/P40L/Q125E/R42F/V115G/Y59C)
- ASSAY_NAME: biochemical
- Type: binding
- STUDY_CONDITIONS: DRB1 *0101
No end group written: not given here.
Readings of IC50 for the listed sequences

[
  {
    "SEQUENCE_RECORD": "PHPLYNMSLLKHQSL",
    "UNIT_ABBREV": "µM",
    "MODIFIER": "=",
    "IC50": 19.1
  },
  {
    "SEQUENCE_RECORD": "SLSLGFLFLLFFWLD",
    "UNIT_ABBREV": "µM",
    "MODIFIER": "=",
    "IC50": 11.4
  },
  {
    "SEQUENCE_RECORD": "LYFVKVDVTGAYDTI",
    "UNIT_ABBREV": "µM",
    "MODIFIER": "=",
    "IC50": 0.016
  },
  {
    "SEQUENCE_RECORD": "ALSTLVLNRLKVGLQ",
    "UNIT_ABBREV": "µM",
    "MODIFIER": "=",
    "IC50": 0.049
  },
  {
    "SEQUENCE_RECORD": "QWVLTAAHCLKKNSQ",
    "UNIT_ABBREV": "µM",
    "MODIFIER": "=",
    "IC50": 0.895
  },
  {
    "SEQUENCE_RECORD": "VLDLYPEPTDLYCYE",
    "UNIT_ABBREV": "µM",
    "MODIFIER": "=",
    "IC50": 11.2
  },
  {
    "SEQUENCE_RECORD": "TIVYRDDTPHGVCTK",
    "UNIT_ABBREV": "µM",
    "MODIFIER": "=",
    "IC50": 3.8
  },
  {
    "SEQUENCE_RECORD": "QKWAAVVVPS",
    "UNIT_ABBREV": "µM",
    "MODIFIER": "≥",
    "IC50": 50
  },
  {
    "SEQUENCE_RECORD": "RNFYVINRLTGYLRN",
    "UNIT_ABBREV": "µM",
    "MODIFIER": "=",
    "IC50": 0.0017
  }
]
